- assay comment: Components of the Cytosolic LPS Sensing Pathway: Gene Identification via Genome-wide siRNA Screen
- study conditions: RAW264.7 macrophages, IL-1a HTRF, actives lie on both sides, screened at 100 nM (by protocol), cells primed 5 h with Pam3CSK4 first
- Description: Non-canonical inflammasome activation by cytosolic LPS is a critical component of the host response to Gram-negative bacterial infection, however we lack a comprehensive understanding of the cellular processes that control this pathway. […] Lipofectamine RNAiMAX Transfection Reagent ([…]; Invitrogen) was added in […] serum-free, antibiotic-free media to plate wells using a Thermo Scientific Matrix WellMate and Microplate Stacker. […] The plates were read on an EnVision plate reader (PerkinElmer). […]
Screen size: about 53,000 sequences; about 3,700 (7%) were called active. The entries come from a sample that favours actives as a whole.
The label is fulfilled for z-score below -0.6 and not fulfilled for z-score equal to or exceeding -0.6.

Here's what some known entries look like.
# construct sequence, answer label
measured = [
    ("GGGCAGAGUGAUGUUGUCATT against Gsdmd", "fulfilled"),
    ("GGAAGAUAUGAAGGGCUCATT against Mb", "fulfilled"),
    ("GGCUGUUAUCCAGAGAGAUTT against Nim1k", "not fulfilled"),
    ("CGUAAACACUCCUAACUUUTT against Hif1a", "not fulfilled"),
    ("GGUGCUUGAUUUUGUGCAGTT against Psmd13", "not fulfilled"),
]

Input GGAACAGUCGGCCAUUUAATT against Tmem98 ; condition: z-score strictly below -0.6. Does it hold?
not fulfilled

Input GGAAGACGGCAACUAUCCATT against Cyp2c50 ; condition: z-score strictly below -0.6. Does it hold?
not fulfilled

Input GGUGUGUGGUGUUAAAAAATT against Mybph ; condition: z-score strictly below -0.6. Does it hold?
fulfilled

Input GCUAAUGACACCACUUUUGTT against Aldh9a1 ; condition: z-score strictly below -0.6. Does it hold?
not fulfilled

Input GGGUCAUCGGAACAGAACUTT against Sult3a1 ; condition: z-score strictly below -0.6. Does it hold?
fulfilled

----------
- assay comment: Components of the Cytosolic LPS Sensing Pathway: Gene Identification via Genome-wide siRNA Screen
- study conditions: RAW264.7 macrophages, IL-1a HTRF, actives lie on both sides, screened at 100 nM (by protocol), cells primed 5 h with Pam3CSK4 first
Out of some 53,000 sequences screened, about 3,700 (7%) were called active.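 How the source made its calls: active means gene knockdowns whose robust z-score for IL-1 alpha signal is at least 2 or at most -2, so actives lie on both sides; inactive means the rest.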 Shown is part of a subset that was picked to be rich in actives.
A correct response names exactly one class from 1.0 for active, 0.0 for inactive

Here's what some known entries look like.
# construct sequence, answer label
records = [
    ("GGGUUAUGAAGAAGCUCCUTT against Olfr1262", 0.0),
    ("CCGAAUACGUGAAGACGCATT against Slc25a1", 0.0),
    ("GGAACCACUGCUAGCCAGATT against Serpinb6a", 0.0),
    ("GGUAGAGCUAAGUAAAGAGTT against Pwp1", 0.0),
]

Outcome? CGUUUGAAUAAUUCAGAGUTT against Armcx2
0.0

Outcome? GCCUGUUUGGUAUUCUUCCTT against Olfr832
0.0

Outcome? GCAGUUGAAUAUCAGACUGTT against Obox5
0.0

Outcome? GAGAACCAGGCUAUGUCUGTT against Defa-rs10
0.0

----------
- assay comment: Components of the Cytosolic LPS Sensing Pathway: Gene Identification via Genome-wide siRNA Screen;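 note: robust z of the log signal after scaling to non-targeting control siRNA wells of the plate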
- study conditions: RAW264.7 macrophages, IL-1a HTRF, actives lie on both sides, screened at 100 nM (by protocol), cells primed 5 h with Pam3CSK4 first
Among all 53,000 sequences or so, about 3,700 (7%) were called active.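 Rule for the calls: active = gene knockdowns whose robust z-score for IL-1 alpha signal is at least 2 or at most -2, so actives lie on both sides; inactive = the rest.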 Only a selection was taken, and actives are over-represented in it overall.
A correct response names exactly one class from 1 = active, -1 = inactive

Outcome? GGAUAAGGAGAUGAAUUCCTT against Aard
-1

Outcome? CCCAGGUAGUAUACAAGGUTT against Pcdh1
1

Outcome? GGACUUCACUUUUCUAUGATT against Tmem64
-1

Outcome? CCCUUACAACUCAAGUAUCTT against Lrig3
1

Outcome? GGAUGUCUGACACAAGUGUTT against Olfr390
1

Outcome? GGAUACAUGUGGUGCCAAUTT against Banf1
-1

Outcome? CCACUAUUAAACUUCUCAATT against Pex3
-1

Outcome? GGACCUGACCUACUCGUGUTT against Rxrb
-1

Outcome? GCGGUUCGCUGUUUGUUUCTT against Zbtb11os1
1

----------
- assay comment: Components of the Cytosolic LPS Sensing Pathway: Gene Identification via Genome-wide siRNA Screen;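 note: robust z of the log signal after scaling to non-targeting control siRNA wells of the plate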
- study conditions: RAW264.7 macrophages, IL-1a HTRF, actives lie on both sides, screened at 100 nM (by protocol), cells primed 5 h with Pam3CSK4 first
Hit rate of the full screen: of about 53,000 sequences, about 3,700 (7%) were called active.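 Rule for the calls: active = gene knockdowns whose robust z-score for IL-1 alpha signal is at least 2 or at most -2, so actives lie on both sides; inactive = the rest.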 The sample as a whole holds a higher share of actives than the screen did.
A correct response names exactly one class from label 1 (active), label 0 (inactive)

# construct sequence, answer label
data = [
    ("GGAAAAGUAUUGGUAGACGTT against Steap4", "label 0"),
    ("CCUCUGUUUGUGCGCCAUATT against Uqcrfs1", "label 0"),
    ("GGCGUGCGAUAACACGCAATT against Med18", "label 0"),
]

Outcome? GCAGAUGAUACCUGGGCAATT against Mtmr14
label 1

Outcome? GGUUCACGGUUUAUAAAGUTT against Sgk3
label 0

Outcome? GGGACUGAGGACUACAUUCTT against Eif1b
label 0

Outcome? GGCUUAAAGGUCCUGUGCUTT against Ighmbp2
label 1

Outcome? GGCAGUACUGUCCAGAUGATT against Gsdma2
label 1

----------
- assay comment: Components of the Cytosolic LPS Sensing Pathway: Gene Identification via Genome-wide siRNA Screen;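 note: robust z of the log signal after scaling to non-targeting control siRNA wells of the plate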
- study conditions: RAW264.7 macrophages, IL-1a HTRF, actives lie on both sides, screened at 100 nM (by protocol), cells primed 5 h with Pam3CSK4 first
The whole screen tested about 53,000 sequences, of which about 3,700 (7%) were called active.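 The calls were made as follows: active = gene knockdowns whose robust z-score for IL-1 alpha signal is at least 2 or at most -2, so actives lie on both sides; inactive = the rest.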 Many of the other results were omitted from the sample, so actives are more common in it than they were.
A correct response names exactly one class from label 1 for active, label 0 for inactive

Outcome? GGCAAGGAUAUAAAUUCACTT against Mak
label 1

----------
- assay comment: Components of the Cytosolic LPS Sensing Pathway: Gene Identification via Genome-wide siRNA Screen;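 note: robust z of the log signal after scaling to non-targeting control siRNA wells of the plate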
- study conditions: RAW264.7 macrophages, IL-1a HTRF, actives lie on both sides, screened at 100 nM (by protocol), cells primed 5 h with Pam3CSK4 first
In all, about 53,000 sequences went through this assay and about 3,700 (7%) were called active. The full list was thinned out, with actives kept by preference.
Exercise: state measured z-score for each of the sequences provided.
Give bare numbers.

Worked examples, 8 sequences total:
# construct sequence, z-score
data = [
    ("GGUGAAACGGGAUGUUAACTT against Ppargc1b", -0.102),
    ("CGGACUCACAGAGCUAAGATT against Tnp2", 1.56),
    ("GGCUGGUAUCUUUCAGAGUTT against Cox6c", 2.2),
    ("GGAUGUUACGAAGAAGAUUTT against Ash1l", -0.664),
    ("CCGUCGUCCUAGAAAAACCTT against Nsun7", -1.18),
    ("GCGAUGAGAUUGUUGCUGUTT against Ttc33", 2.32),
    ("GGUCUCCAUAAGUGUCAGCTT against Cntfr", -0.407),
    ("GCAACACAUUUGAACCACUTT against Usp15", -1.79),
]

// input: 2 sequences below; output: z-score for each
1. GGCUAAUGCUCCUUCAUGUTT against Myo18a
2. CGAGAUGGGAGAUUGAAAUTT against Ms4a8a

[-0.439, 0.47]

// input: 5 sequences below; output: z-score for each
1. GGAAACAAGAUUACAUCAATT against Adamts2
2. GGACAUGGAGAAAAAGUACTT against Styk1
3. CCUGAAUGGACAAACAGGATT against Gm6460
4. GGUACUCUGUGGAUAUCCCTT against Rpl27
5. GGUGUAUGCGUCACUAGAATT against Rxra

1: 2.04; 2: 0.547; 3: -0.193; 4: -0.224; 5: 0.0162

// input: 2 sequences below; output: z-score for each
1. GGGUUAAUCCCUAUCUCUUTT against Tfe3
2. GGAACUGUGAGACUUUUAGTT against Rabgap1

1: 0.419; 2: 0.532

// input: 4 sequences below; output: z-score for each
1. GGCAAUCCAGGCAAUAUCATT against C1qa
2. GCAAAUGAGAGGUCUGUUGTT against Olfr1024
3. GGUCACCUCAAUAAACUCUTT against Myl7
4. GGUGCCAGAUGUCAAGAAATT against Rpn2

1. -0.808
2. -2.52
3. 0.228
4. -0.685
